assay: total protein half-life in vivo (active degradation + dilution); higher = more stable protein; settings: wild type E. coli NCM3722; growth: N-lim chemostat; doubling time 6 h
Would you mind labelling by total protein half-life in vivo? At or over 6 h is yes, under is no.

See these solved cases before continuing.
[[record]]
sequence_input = "MSNKNVNVRKSQEITFCLLAGILMFMAMMVAGRAEAGVALGATRVIYPAGQKQEQLAVTNNDENSTYLIQSWVENADGVKDGRFIVTPPLFAMKGKKENTLRILDATNNQLPQDRESLFWMNVKAIPSMDKSKLTENTLQLAIISRIKLYYRPAKLALPPDQAAEKLRFRRSANSLTLINPTPYYLTVTELNAGTRVLENALVPPMGESTVKLPSDAGSNITYRTINDYGALTPKMTGVME"
discrete_label = "yes"

[[record]]
sequence_input = "MSSNFRHQLLSLSLLVGIAAPWAAFAQAPISSVGSGSVEDRVTQLERISNAHSQLLTQLQQQLSDNQSDIDSLRGQIQENQYQLNQVVERQKQILLQIDSLSSGGAAAQSTSGDQSGAAASTTPTADAGTANAGAPVKSGNANTDYNAAIALVQDKSRQDDAMVAFQNFIKNYPDSTYLPNANYWLGQLNYNKGKKDDAAYYFASVVKNYPKSPKAADAMFKVGVIMQDKGDTAKAKAVYQQVISKYPGTDGAKQAQKRLNAM"
discrete_label = "no"

[[record]]
sequence_input = "MASQLTDAFARKFYYLRLSITDVCNFRCTYCLPDGYKPSGVTNKGFLTVDEIRRVTRAFARLGTEKVRLTGGEPSLRRDFTDIIAAVRENDAIRQIAVTTNGYRLERDVASWRDAGLTGINVSVDSLDARQFHAITGQDKFNQVMAGIDAAFEAGFEKVKVNTVLMRDVNHHQLDTFLNWIQHRPIQLRFIELMETGEGSELFRKHHISGQVLRDELLRRGWIHQLRQRSDGPAQVFCHPDYAGEIGLIMPYEKDFCATCNRLRVSSIGKLHLCLFGEGGVNLRDLLEDDTQQQALEARISAALREKKQTHFLHQNNTGITQNLSYIGG"
discrete_label = "no"


Pending sequence:
Request: Determine whether this sequence has total protein half-life in vivo no lower than 6 h: `MVRIYTLTLAPSLDSATITPQIYPEGKLRCTAPVFEPGGGGINVARAIAHLGGSATAIFPAGGATGEHLVSLLADENVPVATVEAKDWTRQNLHVHVEASGEQYRFVMPGAALNEDEFRQLEEQVLEIESGAILVISGSLPPGVKLEKLTQLISAAQKQGIRCIVDSSGEALSAALAIGNIELVKPNQKELSALVNRELTQPDDVRKAAQEIVNSGKAKRVVVSLGPQGALGVDSENCIQVVPPPVKSQSTVGAGDSMVGAMTLKLAENASLEEMVRFGVAAGSAATLNQGTRLCSHDDTQKIYAYLSR`
Response: no

###

Field: total protein half-life in vivo. Provide a value for each of the sequences that follow.
assay: total protein half-life in vivo (active degradation + dilution); higher = more stable protein; conditions: E. coli NCM3722 delta-smpB; growth: N-lim chemostat; doubling time 6 h
Answers are plain numbers, in h.

[[record]]
sequence_input = "MNIVITGGTGLIGRHLIPRLLELGHQITVVTRNPQKASSVLGPRVTLWQGLADQSNLNGVDAVINLAGEPIADKRWTHEQKERLCQSRWNITQKLVDLINASDTPPSVLISGSATGYYGDLGEVVVTEEEPPHNEFTHKLCARWEEIACRAQSDKTRVCLLRTGVVLAPDGGILGKMLPPFRLGLGGPIGSGRQYLAWIHIDDMVNGILWLLDNELRGPFNMVSPYPVRNEQFAHALGHALHRPAILRVPATAIRLLMGESSVLVLGGQRALPKRLEEAGFAFRWYDLEEALADVVR"
output_unit = "h"
recorded_result = 5.71


Please look at the items below and tell me total protein half-life in vivo for each one, in order.
1. MTETIKVSESLELHAVAENHVKPLYQLICKNKTWLQQSLNWPQFVQSEEDTRKTVQGNVMLHQRGYAKMFMIFKEDELIGVISFNRIEPLNKTAEIGYWLDESHQGQGIISQALQALIHHYAQSGELRRFVIKCRVDNPQSNQVALRNGFILEGCLKQAEFLNDAYDDVNLYARIIDSQ
2. MNMKLKTLFAAAFAVVGFCSTASAVTYPLPTDGSRLVGQNQVITIPEGNTQPLEYFAAEYQMGLSNMMEANPGVDTFLPKGGTVLNIPQQLILPDTVHEGIVINSAEMRLYYYPKGTNTVIVLPIGIGQLGKDTPINWTTKVERKKAGPTWTPTAKMHAEYRAAGEPLPAVVPAGPDNPMGLYALYIGRLYAIHGTNANFGIGLRVSHGCVRLRNEDIKFLFEKVPVGTRVQFIDEPVKATTEPDGSRYIEVHNPLSTTEAQFEGQEIVPITLTKSVQTVTGQPDVDQVVLDEAIKNRSGMPVRLN [P0AAX8]

Response:
1. 4.22
2. 6.37
